These data points were gathered from paper PMC5700166.

Some sequences, each annotated with its measured binding signal.
# measurement.target: GST-Ap-NF-kB RHD (Exaiptasia pallida (Aiptasia), UniProt A0A913YAJ5 2-422)
# Sequence: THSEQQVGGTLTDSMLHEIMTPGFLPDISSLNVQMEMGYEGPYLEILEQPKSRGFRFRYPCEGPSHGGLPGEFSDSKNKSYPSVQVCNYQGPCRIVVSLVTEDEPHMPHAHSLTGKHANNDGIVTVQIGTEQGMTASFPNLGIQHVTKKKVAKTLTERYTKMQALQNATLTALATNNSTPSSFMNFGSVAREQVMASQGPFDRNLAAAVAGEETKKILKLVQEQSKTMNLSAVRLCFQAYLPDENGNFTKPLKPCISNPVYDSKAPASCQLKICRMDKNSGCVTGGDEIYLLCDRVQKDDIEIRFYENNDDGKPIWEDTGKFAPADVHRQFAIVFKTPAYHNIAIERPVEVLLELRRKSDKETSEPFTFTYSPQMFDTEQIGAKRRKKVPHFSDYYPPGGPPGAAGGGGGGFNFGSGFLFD
# protocol.description: protein-binding microarray (PBM); PBM: ~300 nM protein, 6 mM HEPES pH 7.8, 80 mM KCl, 0.5 mM EDTA, 0.5 mM EGTA, 6% glycerol, 35 ng/ul poly-dIdC, 1% milk, 1 h, room temperature; Ap Aiptasia and Nv Nematostella (sea anemones) / Co Capsaspora / Aq Amphimedon (sponge) / Dm Drosophila / Hu human; RHD is the Rel homology domain; high values mean tight binding
# conditions.used: dsDNA, one strand shown

{"columns": ["sequence.chain", "binding signal"],
 "data": [
  ["CCGATTAACATCAAGGAATGCCCTGATGTTAATCGGGTCTTGATTCGCTTGACGCTGCTG", "1.68 z-score"],
  ["CCGATTAACATCATCCCCCCCCATGATGTTAATCGGGTCTTGATTCGCTTGACGCTGCTG", "6.69 z-score"],
  ["CCGATTAACATCAAGGGGAAATCTGATGTTAATCGGGTCTTGATTCGCTTGACGCTGCTG", "8.38 z-score"],
  ["CCGATTAACATCAAAATTCCCAGTGATGTTAATCGGGTCTTGATTCGCTTGACGCTGCTG", "3.76 z-score"],
  ["CCGATTAACATCAGATAATCCCCTGATGTTAATCGGGTCTTGATTCGCTTGACGCTGCTG", "8.1 z-score"],
  ["CCGATTAACATCACGGGGGATTATGATGTTAATCGGGTCTTGATTCGCTTGACGCTGCTG", "7.59 z-score"],
  ["CCGATTAACATCACTACCCCGGATGATGTTAATCGGGTCTTGATTCGCTTGACGCTGCTG", "1.88 z-score"],
  ["CCGATTAACATCAAAACTTTCCCTGATGTTAATCGGGTCTTGATTCGCTTGACGCTGCTG", "4.81 z-score"],
  ["CCGATTAACATCAGATTTTTCCCTGATGTTAATCGGGTCTTGATTCGCTTGACGCTGCTG", "3.33 z-score"],
  ["CCGATTAACATCAGGGGAACCCATGATGTTAATCGGGTCTTGATTCGCTTGACGCTGCTG", "7.48 z-score"],
  ["CCGATTAACATCAGACCTTCCCCTGATGTTAATCGGGTCTTGATTCGCTTGACGCTGCTG", "4.8 z-score"],
  ["CCGATTAACATCAGGACACCCCCTGATGTTAATCGGGTCTTGATTCGCTTGACGCTGCTG", "6.35 z-score"],
  ["CCGATTAACATCAAAAATACCCCTGATGTTAATCGGGTCTTGATTCGCTTGACGCTGCTG", "7.44 z-score"],
  ["CCGATTAACATCAGGGGAACTAATGATGTTAATCGGGTCTTGATTCGCTTGACGCTGCTG", "4.99 z-score"],
  ["CCGATTAACATCAGGGAAAAGAATGATGTTAATCGGGTCTTGATTCGCTTGACGCTGCTG", "2.43 z-score"],
  ["CCGATTAACATCAGGGGTTACACTGATGTTAATCGGGTCTTGATTCGCTTGACGCTGCTG", "2.67 z-score"],
  ["CCGATTAACATCACGGGGAATCCTGATGTTAATCGGGTCTTGATTCGCTTGACGCTGCTG", "9.87 z-score"],
  ["CCGATTAACATCAACATTTCCCCTGATGTTAATCGGGTCTTGATTCGCTTGACGCTGCTG", "6.31 z-score"],
  ["CCGATTAACATCACCATTTTCCCTGATGTTAATCGGGTCTTGATTCGCTTGACGCTGCTG", "3.46 z-score"],
  ["CCGATTAACATCAAGGGGGATTCTGATGTTAATCGGGTCTTGATTCGCTTGACGCTGCTG", "9.03 z-score"],
  ["CCGATTAACATCAGGGGATTTAATGATGTTAATCGGGTCTTGATTCGCTTGACGCTGCTG", "7.05 z-score"],
  ["CCGATTAACATCAAAACATTCCCTGATGTTAATCGGGTCTTGATTCGCTTGACGCTGCTG", "3.1 z-score"],
  ["CCGATTAACATCACCCTTGGGAATGATGTTAATCGGGTCTTGATTCGCTTGACGCTGCTG", "1.03 z-score"],
  ["CCGATTAACATCAAATTTTCCCCTGATGTTAATCGGGTCTTGATTCGCTTGACGCTGCTG", "7.95 z-score"],
  ["CCGATTAACATCAATTCCCAAGGTGATGTTAATCGGGTCTTGATTCGCTTGACGCTGCTG", "1.3 z-score"],
  ["CCGATTAACATCACTTCCCCCCATGATGTTAATCGGGTCTTGATTCGCTTGACGCTGCTG", "4.7 z-score"],
  ["CCGATTAACATCAAAATTCCCACTGATGTTAATCGGGTCTTGATTCGCTTGACGCTGCTG", "3.89 z-score"],
  ["CCGATTAACATCAGAGATCCCCCTGATGTTAATCGGGTCTTGATTCGCTTGACGCTGCTG", "7.26 z-score"],
  ["CCGATTAACATCAAGGTGGGAATTGATGTTAATCGGGTCTTGATTCGCTTGACGCTGCTG", "1.55 z-score"],
  ["CCGATTAACATCAAAAATCCCGATGATGTTAATCGGGTCTTGATTCGCTTGACGCTGCTG", "3.79 z-score"],
  ["CCGATTAACATCACTGTTTCCCCTGATGTTAATCGGGTCTTGATTCGCTTGACGCTGCTG", "5.28 z-score"],
  ["CCGATTAACATCACCCAACCCCCTGATGTTAATCGGGTCTTGATTCGCTTGACGCTGCTG", "4.6 z-score"],
  ["CCGATTAACATCAGAACTTCCCATGATGTTAATCGGGTCTTGATTCGCTTGACGCTGCTG", "2.63 z-score"],
  ["CCGATTAACATCAAGGGGGGGGATGATGTTAATCGGGTCTTGATTCGCTTGACGCTGCTG", "7.71 z-score"],
  ["CCGATTAACATCAGCATCCCCCCTGATGTTAATCGGGTCTTGATTCGCTTGACGCTGCTG", "5.21 z-score"],
  ["CCGATTAACATCACCGCTTCCCTTGATGTTAATCGGGTCTTGATTCGCTTGACGCTGCTG", "1.62 z-score"]
]}
